target desc: T1, HA-POLE2 (human, UniProt P56282 1-527)
T1 construct: POLE2, residues 1-527; also called HA-POLE2 wild type; source: HEK293T, transfected, in cell extract; not shown: HA, N-terminal, kept
T1 sequence (P56282 whole entry, the tested form may be a part): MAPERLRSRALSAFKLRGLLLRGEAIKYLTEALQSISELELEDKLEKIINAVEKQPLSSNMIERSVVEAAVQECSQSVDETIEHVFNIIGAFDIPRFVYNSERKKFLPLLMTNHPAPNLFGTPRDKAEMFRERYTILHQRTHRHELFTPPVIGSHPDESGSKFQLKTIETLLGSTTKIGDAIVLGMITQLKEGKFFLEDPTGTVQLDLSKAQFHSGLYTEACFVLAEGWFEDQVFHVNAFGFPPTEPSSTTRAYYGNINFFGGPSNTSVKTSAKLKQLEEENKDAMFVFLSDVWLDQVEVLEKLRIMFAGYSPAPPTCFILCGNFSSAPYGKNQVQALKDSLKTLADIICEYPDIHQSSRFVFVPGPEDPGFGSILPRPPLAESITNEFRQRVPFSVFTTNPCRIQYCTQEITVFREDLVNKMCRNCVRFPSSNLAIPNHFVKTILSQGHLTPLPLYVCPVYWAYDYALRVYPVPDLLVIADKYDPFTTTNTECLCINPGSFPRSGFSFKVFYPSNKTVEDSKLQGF
assay info: native holdup (nHU) titration with dot blot; DONSON_71-88-saturated streptavidin resin mixed with control resin at various proportions; extracts of HEK293T cells expressing HA-tagged POLE2 variants; 4 °C, 2 h; depletion quantified with an antibody against the HA tag; apparent
condition info: one partner purified
*: point of attachment. Biotin = O=C1N[C@H]2[C@H](CS[C@H]2CCCCC(=O)*)N1; TTDS = Trioxatridecan-succinamic acid linker
measured attribute: pKd
# pKd = -log10(concentration in molar units)

Challenge: Would you mind telling me what pKd value was observed for {Biotin-TTDS}-GPAAARRNPFARLDNRPR-NH2 (Protein downstream neighbor of Son (DONSON), residues 71-88; also called DONSON_71-88; DONSON NPF motif; source: synthetic peptide (ABI 443 A synthesizer, Fmoc), HPLC purified) [NPF motif peptide of DONSON (residues 71-88)] ?
Response given: 6.55
